Consider the following molecules; for each one, report its pIC50.
- Tested Target: full-length beta-Catenin (Uniprot ID P35222) (Homo sapiens, UniProt P35222)
- Construct: 10 nM full-length beta-Catenin (Uniprot ID P35222)
- Sequence (P35222 whole entry): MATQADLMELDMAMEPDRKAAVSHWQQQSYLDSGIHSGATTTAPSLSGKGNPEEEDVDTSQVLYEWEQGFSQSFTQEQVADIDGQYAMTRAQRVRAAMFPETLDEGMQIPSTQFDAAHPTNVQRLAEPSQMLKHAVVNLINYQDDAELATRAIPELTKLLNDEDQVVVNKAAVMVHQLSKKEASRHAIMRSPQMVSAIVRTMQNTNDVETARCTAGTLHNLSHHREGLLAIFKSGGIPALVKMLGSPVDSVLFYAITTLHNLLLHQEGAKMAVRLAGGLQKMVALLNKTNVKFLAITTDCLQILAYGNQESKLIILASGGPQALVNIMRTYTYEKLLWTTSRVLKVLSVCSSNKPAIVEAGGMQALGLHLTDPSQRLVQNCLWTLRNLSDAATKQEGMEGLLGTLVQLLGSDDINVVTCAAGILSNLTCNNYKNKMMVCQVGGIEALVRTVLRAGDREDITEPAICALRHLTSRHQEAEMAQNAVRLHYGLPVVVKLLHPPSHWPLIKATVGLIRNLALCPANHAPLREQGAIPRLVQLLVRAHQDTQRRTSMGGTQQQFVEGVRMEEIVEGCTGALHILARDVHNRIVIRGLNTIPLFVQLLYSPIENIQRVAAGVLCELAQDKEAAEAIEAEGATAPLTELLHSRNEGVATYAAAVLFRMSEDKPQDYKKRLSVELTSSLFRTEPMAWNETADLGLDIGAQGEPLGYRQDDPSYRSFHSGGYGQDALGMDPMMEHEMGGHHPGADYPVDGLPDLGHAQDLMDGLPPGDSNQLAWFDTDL
- Test Name: Fluorescence polarization IC50 (beta-catenin / 5FAM-TCF4 10-53 competition)
- Format: binding
- Particulars: fluorescence polarization; read-out: beta-Catenin FP IC50
Numbers only, as −log10 of the molar value.

Please report pIC50 for every entry that follows.
1. CC(=O)N1CCC[C@]12CC=CCCCC1(CCCC=CCCCCCC[C@@](C)(C(=O)N[C@@H](Cc3ccccc3)C(=O)N[C@@H](Cc3csc4ccccc34)C(N)=O)NC(=O)[C@H](CC(N)=O)NC(=O)[C@H](Cc3ccccc3)NC(=O)[C@H](C)NC(=O)[C@H](C)NC(=O)[C@H](CCC(=O)O)NC(=O)[C@H](CC(=O)O)NC1=O)NC(=O)[C@H](C)NC(=O)[C@H](CC(=O)O)NC2=O (stereo partly drawn) [I-432]
2. CC(=O)N1CCC[C@]12CC=CCCCC1(CCCC=CCCCOC(=O)N3CC[C@@](C(=O)N[C@@H](Cc4ccsc4)C(=O)N[C@@H](Cc4csc5ccccc45)C(=O)N[C@@H](CC(N)=O)C(=O)N[C@@H](C)C(=O)N[C@@H](C)C(=O)N[C@H](C)C(N)=O)(C3)NC(=O)[C@H](CC(C)C)NC(=O)[C@H](Cc3ccccc3)NC(=O)[C@H](C)NC(=O)[C@H](C)NC(=O)[C@H](Cc3cccc(C(=O)O)c3)NC(=O)[C@H](CC(=O)O)NC1=O)NC(=O)[C@H](CC(C)(C)C)NC(=O)[C@H](CC(=O)O)NC2=O (stereo partly drawn) [I-2047]
3. CCNC(=O)C[C@@H]1NC(=O)C2(CCCC=CCCCCCC[C@@](C)(C(=O)N[C@@H](Cc3ccccc3)C(=O)N[C@@H](Cc3csc4ccccc34)C(=O)N[C@@H](CCC(N)=O)C(N)=O)NC(=O)[C@H](C(C)C)NC(=O)[C@H](Cc3ccccc3)NC(=O)[C@H](C)NC(=O)[C@H](C)NC(=O)[C@H](CC(=O)O)NC1=O)CCCC=CC[C@]1(CCCN1C(C)=O)C(=O)N[C@@H](CC(=O)O)C(=O)N[C@@H](C)C(=O)N2 (stereo partly drawn) [I-536]

1. 6.84
2. 7.96
3. 5.35
